# TGT: ClpC1 NTD protein (M. tuberculosis) (Mycobacterium tuberculosis, UniProt P9WPC9)
# Sequence (P9WPC9 1-156, looked up, natural form): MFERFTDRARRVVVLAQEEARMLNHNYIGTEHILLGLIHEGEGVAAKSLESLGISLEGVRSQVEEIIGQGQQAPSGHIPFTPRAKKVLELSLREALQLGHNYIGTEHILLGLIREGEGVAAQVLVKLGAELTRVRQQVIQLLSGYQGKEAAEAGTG
# ASSAY NAME: biochemical
# Assay type: binding
# RUN CONDITIONS: SPR; read-out: ClpC1-NTD KD Mean ± SD
Where a SMILES comes first, the peptide text is derived from it. [ ]: non-standard residue; d: D form. Trp(1-(1,1-Me2-allyl)) = C=CC(C)(C)n1cc(C[C@H](N)C(=O)O)c2ccccc21; Ala(3R-Me,3-isobutenyl) = CC(C)=C[C@@H](C)[C@H](N)C(=O)O; NMeLeu(5-OH,4R) = CN[C@@H](C[C@@H](C)CO)C(=O)O; Phe(βR-OMe) = CO[C@H](c1ccccc1)[C@H](N)C(=O)O; NMeL = CN[C@@H](CC(C)C)C(=O)O
METRIC NAME: log10 Kd (log10 of the value in nM)
Scale: decimal log of Kd, Kd in nM.

Below, 5 compounds whose answers are already recorded.
CO[C@H](c1ccccc1)[C@@H]1NC(=O)[C@H](C)NC(=O)[C@H](C[C@@H](C)CO)N(C)C(=O)[C@H](Cc2cn(Cc3cn(CCOCCn4cc(Cn5cc(C[C@@H]6NC(=O)[C@H](C(C)C)NC(=O)[C@H](CC(C)C)N(C)C(=O)[C@H](C(C)C)NC(=O)[C@H]([C@H](OC)c7ccccc7)NC(=O)[C@H](C)NC(=O)[C@H](C[C@@H](C)CO)N(C)C6=O)c6ccccc65)nn4)nn3)c3ccccc23)NC(=O)[C@H](C(C)C)NC(=O)[C@H](CC(C)C)N(C)C(=O)[C@H](C(C)C)NC1=O [Compound 6] = -0.05
COC(c1ccccc1)C1NC(=O)C(C)NC(=O)C(CC(C)CO)N(C)C(=O)C(Cc2cn(C)c3ccccc23)NC(=O)C(Cc2cn(CCCCCn3cc(CC4NC(=O)C(CC(C)C)N(C)C(=O)C(C(C)C)NC(=O)C(C(OC)c5ccccc5)NC(=O)C(C)NC(=O)C(CC(C)CO)N(C)C(=O)C(Cc5cn(C)c6ccccc56)NC4=O)nn3)nn2)NC(=O)C(CC(C)C)N(C)C(=O)C(C(C)C)NC1=O (stereo not drawn) [Compound 12] = -0.55
CO[C@H](c1ccccc1)[C@@H]1NC(=O)[C@H](C)NC(=O)[C@H](C[C@@H](C)CO)N(C)C(=O)[C@H](Cc2cn(C)c3ccccc23)NC(=O)[C@H](Cc2cn(CCOCCOCCn3cc(C[C@@H]4NC(=O)[C@H](CC(C)C)N(C)C(=O)[C@H](C(C)C)NC(=O)[C@H]([C@H](OC)c5ccccc5)NC(=O)[C@H](C)NC(=O)[C@H](C[C@@H](C)CO)N(C)C(=O)[C@H](Cc5cn(C)c6ccccc56)NC4=O)nn3)nn2)NC(=O)[C@H](CC(C)C)N(C)C(=O)[C@H](C(C)C)NC1=O [Compound 11] = -0.40
CCCCCn1cc(C[C@@H]2NC(=O)[C@H](CC(C)C)N(C)C(=O)[C@H](C(C)C)NC(=O)[C@H]([C@H](OC)c3ccccc3)NC(=O)[C@H](C)NC(=O)[C@H](C[C@@H](C)CO)N(C)C(=O)[C@H](Cc3cn(C)c4ccccc34)NC2=O)nn1 [Compound 24] = 0.66
CCCCCn1cc(C[C@@H]2NC(=O)[C@H](CC(C)C)N(C)C(=O)[C@H](C(C)C)NC(=O)[C@H]([C@H](OC)c3ccccc3)NC(=O)[C@H](C)NC(=O)[C@H](C[C@@H](C)CO)N(C)C(=O)[C@H](Cc3cn(C)c4ccccc34)N(C)C2=O)nn1 [Compound 25] = 1.42

In the following, a different compound is considered.
Entry C=CC(C)(C)n1cc(C[C@@H]2NC(=O)[C@H]([C@H](C)C=C(C)C)NC(=O)[C@H](CC(C)C)N(C)C(=O)[C@H](C(C)C)NC(=O)[C@H]([C@H](OC)c3ccccc3)NC(=O)[C@H](C)NC(=O)[C@H](C[C@@H](C)CO)N(C)C2=O)c2ccccc21 [dCymC] (cyclo([Trp(1-(1,1-Me2-allyl))][NMeLeu(5-OH,4R)]A[Phe(βR-OMe)]V[NMeL][Ala(3R-Me,3-isobutenyl)])) , system ClpC1 NTD protein (M. tuberculosis) (Mycobacterium tuberculosis, UniProt P9WPC9): what log10 Kd was measured?
0.04

---

# Assay type: in vitro ADME, Human
# RUN CONDITIONS: clearance in hepatocytes
*1 amine or outer side, *2 acyl side, *3 side chain or, on linkers, in order; H or OH if unused. Where a SMILES comes first, the peptide text is derived from it. [ ]: non-standard residue; d: D form. ξ: configuration not given here. X3 = C#CCOc1ccc([C@@H](OC)[C@H](N[*:1])C(=O)[*:2])cc1; X5 = C=CCn1cc(C[C@@H](C(=O)[*:2])N(C)[*:1])c2ccccc21; X7 = C=CCn1cc(C[C@H](N[*:1])C(=O)[*:2])c2ccccc21; NMeLeu(5-OH,4R) = CN[C@@H](C[C@@H](C)CO)C(=O)O; Phe(βR-OMe) = CO[C@H](c1ccccc1)[C@H](N)C(=O)O; ξNMeTrp(1-Me) = CNC(Cc1cn(C)c2ccccc12)C(=O)O; Trp(1-Me) = Cn1cc(C[C@H](N)C(=O)O)c2ccccc21; X8 = CC(CO)C[C@@H](C(=O)[*:2])N(C)[*:1]; NMeL = CN[C@@H](CC(C)C)C(=O)O; Pra = C#CC[C@H](N)C(=O)O; ξV = CC(C)C(N)C(=O)O
METRIC NAME: Hepatocyte Human (%Qh)
Give bare numbers, in %Qh.

C=CCn1cc(C[C@@H]2NC(=O)[C@H](C(C)C)NC(=O)[C@H](CC(C)C)N(C)C(=O)[C@H](C(C)C)NC(=O)[C@H]([C@H](OC)c3ccccc3)NC(=O)[C@H](C)NC(=O)[C@H](C[C@@H](C)CO)N(C)C2=O)c2ccccc21 [Compound 13] (cyclo(A[Phe(βR-OMe)]V[NMeL]V[X7][NMeLeu(5-OH,4R)])) = 19

I have 3 compounds here; please give me Hepatocyte Human for each one.
1. C=CCn1cc(C[C@H]2C(=O)N(C)[C@@H](C[C@@H](C)CO)C(=O)N[C@@H](C)C(=O)N[C@@H]([C@H](OC)c3ccccc3)C(=O)N[C@@H](C(C)C)C(=O)N(C)[C@@H](CC(C)C)C(=O)N[C@@H](C(C)C)C(=O)N2C)c2ccccc21 [SI-60] (cyclo(A[Phe(βR-OMe)]V[NMeL]V[X5][NMeLeu(5-OH,4R)]))
2. COC(c1ccccc1)C1NC(=O)C(C)NC(=O)C(CC(C)CO)N(C)C(=O)C(Cc2cn(Cc3cn(CCOCCOCCOCCOCCn4cc(Cn5cc(CC6NC(=O)C(C(C)C)NC(=O)C(CC(C)C)N(C)C(=O)C(C(C)C)NC(=O)C(C(OC)c7ccccc7)NC(=O)C(C)NC(=O)C(CC(C)CO)N(C)C6=O)c6ccccc65)nn4)nn3)c3ccccc23)NC(=O)C(C(C)C)NC(=O)C(CC(C)C)N(C)C(=O)C(C(C)C)NC1=O (stereo not drawn)
3. CO[C@H](c1ccccc1)[C@@H]1NC(=O)[C@H](C)NC(=O)[C@H](C[C@@H](C)CO)N(C)C(=O)[C@H](Cc2cn(Cc3cn(CCCCCn4cc(Cn5cc(C[C@H]6C(=O)N(C)[C@@H](C[C@@H](C)CO)C(=O)N[C@@H](C)C(=O)N[C@@H]([C@H](OC)c7ccccc7)C(=O)N[C@@H](C(C)C)C(=O)N(C)[C@@H](CC(C)C)C(=O)N[C@@H](C(C)C)C(=O)N6C)c6ccccc65)nn4)nn3)c3ccccc23)N(C)C(=O)[C@H](C(C)C)NC(=O)[C@H](CC(C)C)N(C)C(=O)[C@H](C(C)C)NC1=O

1: 50; 2: 12; 3: 12

Quick one: give me Hepatocyte Human for each item below, same order please.
1. C#CC[C@@H]1NC(=O)[C@H](CC(C)C)N(C)C(=O)[C@H](C(C)C)NC(=O)[C@H]([C@H](OC)c2ccccc2)NC(=O)[C@H](C)NC(=O)[C@H](C[C@@H](C)CO)N(C)C(=O)[C@H](Cc2cn(C)c3ccccc23)NC1=O [Compound 10] (cyclo(A[Phe(βR-OMe)]V[NMeL][Pra][Trp(1-Me)][NMeLeu(5-OH,4R)]))
2. C#CCOc1ccc([C@@H](OC)[C@@H]2NC(=O)[C@@H](C)NC(=O)[C@H](CC(C)CO)N(C)C(=O)C(Cc3cn(C)c4ccccc34)N(C)C(=O)C(C(C)C)NC(=O)[C@H](CC(C)C)N(C)C(=O)[C@@H](C(C)C)NC2=O)cc1 (stereo partly drawn) [SI-64] (cyclo([NMeL][ξV][ξNMeTrp(1-Me)][X8][dA][X3][dV]))

1: 12; 2: 22
